# Tested on: MDA-MB-231 breast
# measurement_description: NCI-60 one-dose screen, 48 h (100 = growth as untreated, 0 = no growth, -100 = all killed)
# measurement_conditions: 10 µM
# Protocol: Cells are grown in 96 well plates and exposed to the test compound for 48 hours. Compounds are tested at a single concentration, which is 10^-5 M for most compounds. The reported endpoint is percent growth (GI% or GIPRCNT), where numbers from 0 - 100% represent growth inhibition, and numbers from -100% - 0 represent cell death. For example, a value of 40 represents 60% growth inhibition. A value of 0 means no net growth occurred over the course of the experiment. […]
Compounds without any hit were thinned out: in the full panel of roughly 83,000, 20% have a hit.
measurement_kind: growth (%)
Only the number, expressed in %, is required.

Prompt line: Which growth is reported for this molecule? COc1cccc(COc2ccc(/C=C3\Oc4cc(O)ccc4C3=O)cc2)c1
Response line: 28.6

Prompt line: Another molecule: COc1ccc(CCN2C(=O)/C(=C/c3csc(C#N)n3)SC2=S)cc1OC
Response line: 95.7

Prompt line: Another molecule: C=C1CCC2C3(C)COC(c4cc(F)cc(F)c4)OC3CCC2(C)C1C/C=C1/C(=O)OCC1O (stereo unspecified)
Response line: -63.7

Prompt line: Another molecule: O=C(CSc1nnc(-c2ccc3nc(-c4ccc(Cl)cc4)[nH]c3c2)o1)Nc1ccc(Cl)cc1
Response line: -87.1

Prompt line: Another molecule: Cc1ccc(C(=O)N/C(=C2/OCCN2C)[P+](c2ccccc2)(c2ccccc2)c2ccccc2)cc1
Response line: 65.6

Prompt line: Another molecule: O=C(NCCCCCCCCCC[P+](c1ccccc1)(c1ccccc1)c1ccccc1)c1ccc(-n2nc(-c3ccccc3O)nc2-c2ccccc2O)cc1
Response line: -73.6

Prompt line: Another molecule: CN(C(=O)c1ccc(C(C)(C)C)cc1)c1sc2c(c1C#N)CCC(=O)C2
Response line: -74.4

Prompt line: Another molecule: CC1=C2C(=C[C@@](C)(CO)[C@@H]2O)/C(=N\N)[C@](C)(O)C12CC2
Response line: -21

Prompt line: Another molecule: Clc1cccc(N/N=C/c2c[nH]c3ccccc23)n1
Response line: -0.126

Prompt line: Another molecule: Cc1cc(=O)oc2cc(OCCCCOc3ccc(/C=C/C(=O)Nc4ccccc4[N+](=O)[O-])cc3)ccc12
Response line: 102

Prompt line: Another molecule: CC(=O)NNc1ccc2nnc(-c3ccc(Br)cc3)n2n1
Response line: 94

Prompt line: Another molecule: O=S(=O)(c1ccc(Cl)cc1)c1nc(-c2ccccc2)oc1S(=O)(=O)c1ccc(Cl)cc1
Response line: 76.9

Prompt line: Another molecule: NS(=O)(=O)c1ccc(N=Nc2c(O)n(CC(=O)Nc3ccccc3Br)c3ccccc23)cc1
Response line: 11.2

Prompt line: Another molecule: O=C(Nc1ccncc1)c1ccc(-n2c(=O)[nH]c3ccccc3c2=O)cc1
Response line: 98.2

Prompt line: Another molecule: N#Cc1c(NC(=O)c2ccc(C(F)(F)F)c(Cl)c2)sc2c1CCC(=O)C2
Response line: -87.5

Prompt line: Another molecule: COc1cc2c3c(n(CCCn4ccnc4)c(=O)c2cc1OC)-c1nc2c(cc1C3=O)OCO2
Response line: 84.1

Prompt line: Another molecule: O=c1oc2ccccc2cc1-c1csc(N=Nc2c(O)[nH]c3ccc(Br)cc23)n1
Response line: 56.5

Prompt line: Another molecule: COc1ccc(C2NC(=S)NC(C)=C2C(=O)OC(C)C)cc1OC (stereo unspecified)
Response line: 105

Prompt line: Another molecule: CCCCSc1nc(Nc2ccc(/C(C)=N/NC(N)=S)cc2)c(C#N)c(-c2ccc(OC)cc2)n1
Response line: -11.4

Prompt line: Another molecule: CC(=O)OC[C@@]1(C)C2CC[C@]3(C)C(CC=C4C5CC(C)(C)CC[C@]5(C(=O)Nc5ccccc5)CC[C@]43C)[C@@]2(C)C[C@@H](OC(C)=O)[C@@H]1OC(C)=O (stereo partly specified)
Response line: 60.6

Prompt line: Another molecule: O=C(c1ccc(O)cc1)C1[C@H](c2ccccc2Br)[C@@H](c2ccccc2)NC12C(=O)Nc1ccc(Br)cc12 (stereo partly specified)
Response line: 46.3

Prompt line: Another molecule: C#Cc1ccc(S(=O)(=O)Nc2cccc(-c3csc(NC(C)=O)n3)c2)cc1
Response line: 84.5

Prompt line: Another molecule: N#Cc1ccc(-c2nn(-c3ccc(C(=O)O)cc3)cc2CNc2ccc(Oc3ccccc3)cc2)cc1
Response line: 72.5

Prompt line: Another molecule: CN(C)c1ccc(/C=C/c2nc3ccccc3c(=O)n2CC(=O)Nc2ccccc2)cc1
Response line: 33.4

Prompt line: Another molecule: O=c1c2ccccc2nc(COc2ccccc2)n1/N=C/c1ccc(N2CCOCC2)cc1
Response line: 26

Prompt line: Another molecule: Cc1ccc2nc(COc3ccc(C(=O)NNC(=S)NC(=O)c4ccccc4)cc3)[nH]c2c1
Response line: 71.5

Prompt line: Another molecule: COc1ccc(-c2nc(Nc3ccccc3S(N)(=O)=O)c3ccccc3n2)cc1
Response line: -33.6

Prompt line: Another molecule: COc1ccc(-c2ccc(/C=N/NC(=O)c3[nH]c4ccc(Br)cc4c3-c3ccccc3)s2)cc1
Response line: 59.5

Prompt line: Another molecule: Cc1ccc(C(=O)NCCCNc2nc(Nc3ccc(N4CCN(C)CC4)cc3)nc3ccsc23)cc1
Response line: 44.4

Prompt line: Another molecule: COc1cccc(-c2nn(-c3ccccc3)cc2-c2ccnc(NCCCNC(=O)Nc3ccc(F)cc3)c2)c1
Response line: -1.32

Prompt line: Another molecule: COc1cnc2c(c1)C(=O)c1c-2n(CCCNCCO)c(=O)c2cc(OC)c(OC)cc12
Response line: 19.2

Prompt line: Another molecule: CC(C)C1=C[C@@]23CC[C@@H]4[C@](C)(CCC[C@]4(C)C(=O)NCc4ccccc4)[C@H]2C[C@@H]1[C@H]1C(=O)OC(=O)[C@H]13
Response line: 77.1

Prompt line: Another molecule: O=C(c1ccc(O)cc1)C1[C@H](c2ccc(Br)cc2)[C@@H](c2ccccc2)NC12C(=O)Nc1ccccc12 (stereo partly specified)
Response line: -40.8

Prompt line: Another molecule: CNC(=O)c1cc(-c2ccc(NC(=O)Nc3ccc(C)cc3)cc2)nc2cccnc12
Response line: 93.3

Prompt line: Another molecule: Cc1ccc(CNC(=O)Cc2ccc3c(c2)CN(C2CCC(=O)NC2=O)C3=O)cc1 (stereo unspecified)
Response line: -36.7

Prompt line: Another molecule: O=C1Nc2ccc(Cl)cc2/C1=C/c1cccc(OCc2ccccn2)c1
Response line: -50.8
